target: human CXCR3 (N-delta 4) (Homo sapiens, UniProt P49682); construct: CD8 leader; Flag tag; expressed in transfected cells; membranes used; test: Human CXCR3 (N-delta 4) scintillation proximity assay (SPA), [125I] IP-10 binding; conditions: IC50 rating; Ba/F3-hCXCR3 (N-delta 4) membranes, 25 pM [125I] IP-10
pIC50: −log10 of the molar value.
Overview of reported pIC50 across a group of compounds:

Observe how each entry below is paired with its result.
Check the records and state pIC50 for O=C(NCc1ccc(F)c(Cl)c1)c1cnc(N2CCN(C3CCN(Cc4ccc([N+](=O)[O-])cc4)CC3)CC2)c(Cl)c1 7.00 to 7.60

Return value of pIC50 for input CC[C@H]1CN(c2ncc(C(=O)NN)cc2Cl)CCN1C1CCN(Cc2ccc(Cl)cc2F)CC1 , no commentary. 7.00 to 7.60

Give pIC50 for the following compound: CC1(N2CCN(c3ncc(C(=O)NCc4ccc(Cl)c(Cl)c4)cc3Cl)CC2)CCN(Cc2ccc(Cl)cc2)CC1 7.00 to 7.60

Provide pIC50 value for the following compound: O=C(NCc1ccc(C(F)(F)F)cc1)c1cnc(N2CCN(C3CCN(Cc4ccc(Br)cc4)CC3)CC2)c(Cl)c1 < 7.00

Check the records and state pIC50 for O=C(NCc1cccc(Cl)c1)c1cnc(N2CCN(C3CCN(Cc4ccc([N+](=O)[O-])cc4)CC3)CC2)c(Cl)c1 7.00 to 7.60

Give the reported value of pIC50 for this record: Cc1cc(C(=O)NCC2CCCCC2)cnc1N1CCN(C2CCN(Cc3ccc(Cl)cc3)CC2)CC1 < 7.00

Others:
Please report pIC50 for the following compound: CC[C@H]1CN(c2ncc(CNC(=O)NC)cc2Cl)CCN1C1CCN(Cc2ccc(Cl)cc2F)CC1 > 7.60

Answer with reported pIC50 of CC[C@H]1CN(c2ncc(CNC(=O)NN)cc2Cl)CCN1C1CCN(Cc2ccc(Cl)cc2F)CC1 > 7.60

Complete the entry with pIC50 for CC[C@H]1CN(c2ncc(COC(=O)NC(C)C)cc2Cl)CCN1C1CCN(Cc2ccc(Cl)cc2F)CC1 > 7.60

Give a short answer stating reported pIC50 for CCNC(=O)c1cnc(N2C[C@H](C)N(C3CCN(Cc4ccc(Cl)cc4F)CC3)C[C@H]2C)c(Cl)c1 . > 7.60

Annotate the compound O=C(NCc1ccc(Br)cc1)c1cnc(N2CCN(C3CCN(Cc4ccc(F)cc4F)CC3)CC2)c(Cl)c1 with its measured pIC50. < 7.00

Please list pIC50 recorded for the compound O=C(NCc1ccc(Br)cc1)c1cnc(N2CCN(C3CCN(Cc4ccc(Cl)cc4Cl)CC3)CC2)c(Cl)c1 < 7.00

Item O=C(NCc1ccc(F)cc1F)c1cnc(N2CCN(C3CCN(Cc4ccc(Cl)cc4)CC3)CC2)c(Cl)c1 : provide pIC50 7.00 to 7.60

* * *

Target: human CXCR3 (N-delta 4) (Homo sapiens)
Construct: CD8 leader; Flag tag; expressed in transfected cells; membranes used
Sequence (P49682 5-368 limits assumed): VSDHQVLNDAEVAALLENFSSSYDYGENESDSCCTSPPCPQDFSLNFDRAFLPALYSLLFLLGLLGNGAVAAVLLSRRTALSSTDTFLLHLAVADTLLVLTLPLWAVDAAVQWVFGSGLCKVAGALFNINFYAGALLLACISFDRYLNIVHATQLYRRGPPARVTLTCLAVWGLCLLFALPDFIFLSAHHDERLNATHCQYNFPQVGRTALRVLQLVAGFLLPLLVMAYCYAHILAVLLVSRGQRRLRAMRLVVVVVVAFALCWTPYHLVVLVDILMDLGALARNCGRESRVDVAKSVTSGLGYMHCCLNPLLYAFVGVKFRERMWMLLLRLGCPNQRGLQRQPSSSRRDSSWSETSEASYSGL
Assay: Human CXCR3 (N-delta 4) scintillation proximity assay (SPA), [125I] IP-10 binding
Conditions: IC50 rating; Ba/F3-hCXCR3 (N-delta 4) membranes, 25 pM [125I] IP-10
assay-metric: IC50

Examples from the recorded data:
Fill in reported IC50 for this entry: CC(C)NC(=O)c1cnc(N2CCN(C3CCN(Cc4ccc(Cl)cc4)CC3)[C@@H](C)C2)c(Cl)c1 < 25 nM

Given the molecule CC[C@H]1CN(c2ncc(CNC(=O)NC3CC3)cc2Cl)CCN1C1CCN(Cc2ccc(Br)cc2F)CC1 , write its reported IC50. < 25 nM

Indicate its recorded IC50; the molecule in question is N#Cc1ccc(CN2CCC(N3CCN(c4ncc(C(=O)NCCOc5ccccc5)cc4Cl)CC3)CC2)cc1 > 100 nM

***
Supply recorded IC50 for O=C(NCc1ccccc1)c1cnc(N2CCN(C3CCN(Cc4ccc(F)cc4)CC3)CC2)c(Cl)c1 here. > 100 nM
